Test system: Rattus norvegicus
assayMethodText: Plasma concentration Sprague-Dawley rat at 30 mg/kg
Format: ADME, organism-based
Design: dose 30 mg/kg
assayConditions: in vivo
measure: Cp (ng/mL)

• CCC(=O)c1cc(-c2ccc(Cl)cc2)n(-c2ccc(S(N)(=O)=O)cc2)c1C = 12400

---

assayedTarget: Neuronal acetylcholine receptor subunit alpha-7 (Homo sapiens, UniProt P36544)
Sequence (P36544 whole entry): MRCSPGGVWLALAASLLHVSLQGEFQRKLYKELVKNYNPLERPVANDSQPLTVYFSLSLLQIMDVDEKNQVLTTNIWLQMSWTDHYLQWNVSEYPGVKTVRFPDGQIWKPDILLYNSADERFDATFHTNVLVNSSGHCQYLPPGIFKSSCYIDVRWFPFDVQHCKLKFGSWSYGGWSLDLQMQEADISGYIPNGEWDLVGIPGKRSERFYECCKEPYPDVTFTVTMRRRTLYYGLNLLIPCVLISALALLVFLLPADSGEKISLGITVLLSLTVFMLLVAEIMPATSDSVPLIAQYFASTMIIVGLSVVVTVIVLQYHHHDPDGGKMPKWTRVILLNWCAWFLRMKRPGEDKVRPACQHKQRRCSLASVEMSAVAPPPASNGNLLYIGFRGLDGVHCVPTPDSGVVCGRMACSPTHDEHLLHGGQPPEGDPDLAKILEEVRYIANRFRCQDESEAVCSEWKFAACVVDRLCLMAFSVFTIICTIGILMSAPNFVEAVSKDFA
assayMethodText: Allosteric modulator activity at alpha7 nAChR in human IMR32 cells assessed as stimulation of agonist-induced intracellular calcium level by FLIPR assay relative to 1-(5-chloro-2,4-dimethoxyphenyl)-3-(5-methylisoxazol-3-yl)urea
Assay type: functional, cell-based
assayConditions: IMR-32
Returns Yes if the recorded Efficacy is greater than or equal to 9%, and No otherwise.

- Cc1c(C(=O)N(C)C)cc(-c2ccc(Cl)cc2)n1-c1ccc(S(N)(=O)=O)cc1: No
- Cc1c(C(=O)C2CC2)cc(-c2ccc(Cl)cc2)n1-c1ccc(S(N)(=O)=O)cc1: Yes
- Cc1c(C(=O)CC(C)C)cc(-c2ccc(Cl)cc2)n1-c1ccc(S(N)(=O)=O)cc1: Yes
- Cc1c(C(=O)N(C)C(C)C)cc(-c2ccc(Cl)cc2)n1-c1ccc(S(N)(=O)=O)cc1: No
- Cc1c(C(=O)N2CCCCC2)cc(-c2ccc(Cl)cc2)n1-c1ccc(S(N)(=O)=O)cc1: Yes
- CCN(C)C(=O)c1cc(-c2ccc(Cl)cc2)n(-c2ccc(S(N)(=O)=O)cc2)c1C: No
- CCOC(=O)c1cc(-c2ccc(Br)cc2)n(-c2ccc(S(N)(=O)=O)cc2)c1C: Yes
- Cc1c(C(=O)N2CCOCC2)cc(-c2ccc(Cl)cc2)n1-c1ccc(S(N)(=O)=O)cc1: No
- CCCN(CCO)C(=O)c1cc(-c2ccc(Cl)cc2)n(-c2ccc(S(N)(=O)=O)cc2)c1C: Yes
- Cc1c(C(=O)c2ccc(Cl)cc2)cc(-c2ccc(Cl)cc2)n1-c1ccc(S(N)(=O)=O)cc1: No
- Cc1c(C(=O)N2CCCC2)cc(-c2ccc(Cl)cc2)n1-c1ccc(S(N)(=O)=O)cc1: Yes
- Cc1c(C(=O)O)cc(-c2ccc(Cl)cc2)n1-c1ccc(S(N)(=O)=O)cc1: No
- COc1ccc(F)cc1C(=O)c1cc(-c2ccc(Cl)cc2)n(-c2ccc(S(N)(=O)=O)cc2)c1C: Yes
- Cc1ccc(C(=O)c2cc(-c3ccc(Cl)cc3)n(-c3ccc(S(N)(=O)=O)cc3)c2C)cc1: No

---

assayMethodText: Oral bioavailability in rat at 2 umol/kg
Type: ADME, organism-based
assayConditions: in vivo
measure: bioavailability (%)

- CCC(=O)c1cc(-c2ccc(Cl)cc2)n(-c2ccc(S(N)(=O)=O)cc2)c1C: 83

---

assayMethodText: Volume of distribution at steady state in rat at 2 umol/kg, iv
Format: ADME, organism-based
assayConditions: in vivo, read-out: Vdss
measure: Vd (L/kg)

* CCC(=O)c1cc(-c2ccc(Cl)cc2)n(-c2ccc(S(N)(=O)=O)cc2)c1C | 4.6

---

System: Rattus norvegicus
assayMethodText: Plasma concentration Sprague-Dawley rat at 3 mg/kg
Type: ADME, organism-based
Parameters: dose 3 mg/kg
assayConditions: in vivo
measure: Cp (ng/mL)

• CCC(=O)c1cc(-c2ccc(Cl)cc2)n(-c2ccc(S(N)(=O)=O)cc2)c1C = 1000

Reference for the values: ChEMBL document CHEMBL1138521
